test system: NCI-H522 lung; assay: NCI-60 one-dose screen, 48 h (100 = growth as untreated, 0 = no growth, -100 = all killed); conditions: 10 µM unless noted
This is part of a sample that, as a whole, favours compounds with a hit. Of some 83,000 tested, about 20% had one in any assay.
Please respond with reported growth for every item in the list.
One number for each entry, in %.

Worked set:
{"compound": "CCc1ccc(NC(=O)N[C@@H](Cc2cc(F)cc(F)c2)C(=O)N[C@@H]2C(=O)N3CCC[C@H]3C(=O)N3CCO[C@H](C)[C@H]3C(=O)N[C@@H](CO)C(=O)N3C[C@H](C)C[C@H]3C(=O)O[C@H]2C)c(F)c1", "measurement": 17.5}
{"compound": "COc1cc(C(=O)C[n+]2ccc3ccccc3c2)cc(OC)c1OC", "measurement": 92.9}
{"compound": "Clc1ccc(-c2csc(Nc3cccc(Nc4csc(-c5ccc(Cl)cc5)n4)c3)n2)cc1", "measurement": 45.6}
{"compound": "CCN(CC)c1ccc2cc(C(=O)NCCOCCOCCOCCn3cc(CCC(=O)Nc4ccc(C(=O)c5ccc(NC(=O)OC(C)(C)C)cc5)cc4)nn3)c(=O)oc2c1", "measurement": 28.4}
{"compound": "Cc1ccc(NC(=O)c2ccc(CN3CCN(C)CC3)c(C(F)(F)F)c2)cc1Oc1ccc(-c2[nH]nc3ncnc(N)c23)cc1", "measurement": 84.9}

Go through the items and report each one's growth.
1. COc1ccc(-c2ccnc3c(C#N)c(Nc4ccccc4)nn23)cc1OC
2. CCN(CC)CCN1C(=O)c2c(c3c4cc(Br)ccc4[nH]c3c3ccc4ccccc4c23)C1=O

Completion:
[81.4, -41.9]

Go through the items and report each one's growth.
1. COc1cc(/C=C/C(=O)c2ccc(NC(=O)COc3cccc4cccnc34)cc2)cc(OC)c1OC
2. O=C(Nc1cccc(Cl)c1)Nc1nc2ccc([N+](=O)[O-])cc2s1
3. CCN(CC)CCCC(C)NCC(=O)NC(c1ccc2c(c1)OCO2)c1cc(Cl)c2cccnc2c1O (configuration not stated)
4. COc1ccc2c(C3=C(c4c[nH]c5ccccc45)C(=O)N(O)C3=O)coc2c1
5. ClC(Cl)c1nc(-c2cccs2)n2nc(-c3ccccc3)cc2n1
6. COc1ccc([C@H]2[C@H](O)C(=O)N2c2cc(OC)c(OC)c(OC)c2)cc1
7. O=c1oc2ccc(-c3ccc(F)cc3F)cc2c(=O)n1-c1cccc(C(F)(F)F)c1

Completion:
1. 80.4
2. 2.99
3. 37.4
4. 68.4
5. 75.1
6. -20.8
7. 0.254

Go through the items and report each one's growth.
1. O=[N+]([O-])c1ccc(-c2nnc(SCc3ccc(O)c4ncccc34)n2-c2ccccc2)cc1
2. O=C1[C@H]2Cc3c([nH]c4ccccc34)[C@H](c3ccc(Cl)cc3)N2C(=O)CN1C1CCN(Cc2c(Cl)cccc2Cl)CC1

Completion:
9.93
75.3

Go through the items and report each one's growth.
1. CCOC(=O)c1c(NCC(=O)Nc2cccc([N+](=O)[O-])c2)sc2c1CCCC2
2. Cn1cc(-c2nn3cc(-c4cccnc4)nc3s2)c2ccccc21

Completion:
1: -67; 2: -12.9

---

tested on: A549/ATCC NSCLC; test: NCI-60 one-dose screen, 48 h; conditions: 10 µM unless noted
About 83,000 compounds went through this panel and 20% of them were active in at least one assay; those are over-represented in the sample as a whole. Calls of active or inactive are those of the source. How the source made its calls: active means growth percent below 10; inactive means the rest.
Pick one: 1 (yes) = active, 0 (no) = inactive

Solved entries:
{"molSmiles": "Cn1cc(-c2nnc(N)nc2-c2cn(C)c3ccc(F)cc23)c2cc(F)ccc21", "assignedClass": "0 (no)"}
{"molSmiles": "N/C(=N\\OC(=O)CSc1nc2ccccc2s1)c1ccc2ccccc2c1", "assignedClass": "0 (no)"}

Now let's try a different one.
Prompt: // outcome(item) with item = CC(C)SC1=NC(=C(C(=N1)NC2=ClC=CC=C2)C#N)C3=CC=CC=C3
Completion: 0 (no)
